This collection of values is drawn from paper PMC6170741.

Assay: Repeat dose plasma pharmacokinetics in patients
Format: in vivo, human
Conditions: human, plasma, oral, 20 mg, Tmax, repeat dose 20 mg once daily (n = 1), day 8
outcome_measure: Tmax (h)
Number in h, nothing else.

Need Tmax, item Cn1ncc(Cl)c1-c1cc(C(=O)N[C@H](CN)Cc2ccc(F)c(F)c2)oc1Cl
3

###

Experiment: Single dose plasma pharmacokinetics in patients
Format: in vivo, human
Details: human, plasma, po, Tmax, majority, across all doses and regimens
outcome_measure: Tmax

Record request: Tmax value, item Cn1ncc(Cl)c1-c1cc(C(=O)N[C@H](CN)Cc2ccc(F)c(F)c2)oc1Cl
2 to 4 h
